# Substrate: NC(=O)C[C@H](N)C(=O)O
# experiment notes: Nessler reagent assay of ammonia, Michaelis-Menten fit
# Format: biochemical, Thermococcus litoralis
# assay setup: pH 10, 80 °C, 0.5-18.0 mM L-asparagine, free enzyme
As shown below, each of these proteins has a reported Km value.
Answer by giving the amount and then stating its unit.

Below: 2 proteins and their reported Km.
| protein | obs value |
| --- | --- |
| L-asparaginase Tli10209 (Thermococcus litoralis DSM 5473; K48L/T70A) (protein) MSEKRKLERRGAEDMKRILIIGTGGTIASAKTDAGFKSVLTIDEILELADIKLKNGYEIDTRNILNIDSALIQPEDWERIAKEVYKALEDYDGIVITHGTDTLAYTASMLTFMIRGINKPVVLTGSMRPVTEEESDAPRNLKAAIRFAMEDVSGIFVAFMDKIMLGCRTSKIRALGLNAFMSINYPDVAYVKGEEVIYNLPQKRFKPKGEPVLDTKYEPRVVFIRLTPGLDGNAIDALVKAGYRGIVLEGYGAGGIPYRKRDILSKIREITPQIPVVMTTQALYDGVDLTKYEVGRKALEAGIIPAKDMTKETTITKLMWALGHTKNVEEVKEIMHTNYADEIEG | 6.65 mM |
| L-asparaginase Tli10209 (Thermococcus litoralis DSM 5473; F36Y) (protein) MSEKRKLERRGAEDMKRILIIGTGGTIASAKTDAGYKSVLTIDEILEKADIKLKNGYEIDTRNILNIDSTLIQPEDWERIAKEVYKALEDYDGIVITHGTDTLAYTASMLTFMIRGINKPVVLTGSMRPVTEEESDAPRNLKAAIRFAMEDVSGIFVAFMDKIMLGCRTSKIRALGLNAFMSINYPDVAYVKGEEVIYNLPQKRFKPKGEPVLDTKYEPRVVFIRLTPGLDGNAIDALVKAGYRGIVLEGYGAGGIPYRKRDILSKIREITPQIPVVMTTQALYDGVDLTKYEVGRKALEAGIIPAKDMTKETTITKLMWALGHTKNVEEVKEIMHTNYADEIEG | 7.00 mM |

For record L-asparaginase Tli10209 (Thermococcus litoralis DSM 5473; T70A) (protein) MSEKRKLERRGAEDMKRILIIGTGGTIASAKTDAGFKSVLTIDEILEKADIKLKNGYEIDTRNILNIDSALIQPEDWERIAKEVYKALEDYDGIVITHGTDTLAYTASMLTFMIRGINKPVVLTGSMRPVTEEESDAPRNLKAAIRFAMEDVSGIFVAFMDKIMLGCRTSKIRALGLNAFMSINYPDVAYVKGEEVIYNLPQKRFKPKGEPVLDTKYEPRVVFIRLTPGLDGNAIDALVKAGYRGIVLEGYGAGGIPYRKRDILSKIREITPQIPVVMTTQALYDGVDLTKYEVGRKALEAGIIPAKDMTKETTITKLMWALGHTKNVEEVKEIMHTNYADEIEG the listed Km is 7.90 mM

For record L-asparaginase Tli10209 (Thermococcus litoralis DSM 5473) (protein) MSEKRKLERRGAEDMKRILIIGTGGTIASAKTDAGFKSVLTIDEILEKADIKLKNGYEIDTRNILNIDSTLIQPEDWERIAKEVYKALEDYDGIVITHGTDTLAYTASMLTFMIRGINKPVVLTGSMRPVTEEESDAPRNLKAAIRFAMEDVSGIFVAFMDKIMLGCRTSKIRALGLNAFMSINYPDVAYVKGEEVIYNLPQKRFKPKGEPVLDTKYEPRVVFIRLTPGLDGNAIDALVKAGYRGIVLEGYGAGGIPYRKRDILSKIREITPQIPVVMTTQALYDGVDLTKYEVGRKALEAGIIPAKDMTKETTITKLMWALGHTKNVEEVKEIMHTNYADEIEG the listed Km is 6.78 mM
